System: WPMY1-CANX-COX4
Assay: phenotypically active (imaging signature differs from DMSO and reproducible) at any of 0.3-9 uM (binary (1 = active, 0 = inactive)); higher = active
Settings: treatment time: 24 h
Known phenotypically active of a selection of molecules
measurement-name: phenotypically active

> print(dat)
                                   molecule     study.target  value.reported
1    CCCCCCCCCCCCCCCC[n+]1ccn(Cc2ccccc2)c1C  WPMY1-CANX-COX4               1
2  O=C1CCC[C@@H]2[C@H]3CCC[N+]4([O-])CCC[C@@H](CN12)[C@@H]34 (stereo partly drawn) [Oxymatrine]  WPMY1-CANX-COX4               0
3  CNC(=C[N+](=O)[O-])NCCSCc1ccc(CN(C)C)o1 [ranitidine]  WPMY1-CANX-COX4               0
